Target: human 5-HT2A (Homo sapiens, UniProt P28223)
measured quantity: pKd
A value of pKd is the negative decimal logarithm of a concentration given in moles per litre.

Summary line: CN1CN(c2ccccc2)C2(CCN(CCCC(=O)c3ccc(F)cc3)CC2)C1=O [[^3H]N-methyl spiperone, reference compound] , human 5-HT2A (Homo sapiens, UniProt P28223), reported pKd = 9.04

----------
Molecular target: human 5-HT2A (Homo sapiens, UniProt P28223)
Construct: expressed in transfected cells; membranes prepared
Experiment: Receptor binding assay, inhibition of [3H]-ligand binding to human 5-HT2A
Conditions: [3H]N-methyl spiperone 1.5 nM, BHK cell membranes, 37°C, 40 min
Protocol: Cells stably expressing the human homologs of the receptors (dopamine D2L, serotonin 5HT2A and 5HT2C, α1A adrenergic; cloned and expressed at Hoechst Marion Roussel; Grandy et al., 1989: Monsma et al., 1993; Schwinn et al., 1995) were grown: cell membranes were prepared, and kept frozen until used (Kongsamut et al., 1996). […]
measured quantity: Ki (µM)
Report the figure in µM without appending any unit label.

Summary line: COc1c(OS(=O)(=O)O)cccc1C(O)C1CCN(CCc2ccc(F)cc2)CC1 (single isomer, unassigned) [Example 1H] , human 5-HT2A (Homo sapiens, UniProt P28223), reported Ki = 0.16
